- Tested on: MCF7
- method.notes: Antiproliferative activity against human MCF7 cells assessed as inhibition of cell proliferation measured after 72 hrs by MTT assay
- Format: functional, cell-based
- test.parameters: MCF7, 72 h
metric.name: IC50

> print(dat)
                                  structure  metric.name  value.measured
1  Cc1cc(Nc2ccn(Cc3csc4ccc(Cl)cc34)n2)n2nc(SCc3ccc(Br)cc3)nc2n1         IC50         2.57 µM
2  Cc1cc(Nc2ccn(Cc3ccccc3)n2)n2nc(SCc3ccc(Br)cc3)nc2n1         IC50         15.8 µM
3  Cc1nc2nc(SCc3ccc(Cl)cc3)nn2c(Nc2cc(-c3ccccc3)[nH]n2)c1C         IC50         10.6 µM
4  Cc1cc(Nc2cc(-c3ccccc3)[nH]n2)n2nc(SCc3csc4ccccc34)nc2n1         IC50         3.47 µM
5  C#CCSc1nc2nc(C)cc(Nc3cc(-c4ccccc4)[nH]n3)n2n1         IC50         21.8 µM

## Task Record request: IC50 value, item COc1ccc(Cn2ccc(Nc3cc(C)nc4nc(SCc5ccc(Br)cc5)nn34)n2)cc1
## Result 14.6 µM

## Task # iterate: Cc1cc(Nc2cc(-c3ccccc3)[nH]n2)n2nc(SCc3ccc(Cl)cc3)nc2n1
## Result 8.26 µM

## Task # iterate: Cc1cc(Nc2cc(-c3cccs3)[nH]n2)n2nc(SCc3ccc(Br)cc3)nc2n1
## Result 5.37 µM

## Task # iterate: Cc1cc(Nc2cc(-c3ccccc3)[nH]n2)n2nc(SCc3cccc(Br)c3)nc2n1
## Result 5.14 µM

----------
- Test system: PC-9
- method.notes: Antiproliferative activity against human PC-9 cells assessed as inhibition of cell proliferation measured after 72 hrs by MTT assay
- Type: functional, cell-based
- test.parameters: PC-9, 72 h
metric.name: pIC50
Remember, pIC50 is on a log scale: it is -log10 of the molar concentration.

Reference set, count: 4
> print(dat)
                                  structure  value.measured
1  Cc1cc(Nc2cc(-c3ccc(F)cc3)[nH]n2)n2nc(SCc3ccc(Br)cc3)nc2n1            5.21
2  Cc1cc(Nc2cc(-c3ccccc3)[nH]n2)n2nc(SCc3cc(=O)oc4c3ccc3ccccc34)nc2n1            5.47
3  Cc1cc(Nc2cc(-c3ccccc3)[nH]n2)n2nc(SCc3nc4ccccc4[nH]3)nc2n1            5.32
4  Cc1cc(Nc2cc(-c3ccccc3)[nH]n2)n2nc(SCc3csc4ccccc34)nc2n1            5.35

Here's the next entry for you.
## Task Record request: pIC50 value, item Cc1cc(Nc2ccn(Cc3cccc4ccccc34)n2)n2nc(SCc3ccc(Br)cc3)nc2n1
## Result 5.25

----------
- Tested on: MCF7
- method.notes: Antiproliferative activity against human MCF7 cells assessed as inhibition of cell proliferation measured after 72 hrs by MTT assay
- Format: functional, cell-based
- test.parameters: MCF7, 72 h
metric.name: pIC50
Remember, pIC50 is on a log scale: it is -log10 of the molar concentration.

Reference set, count: 6
> print(dat)
                                  structure  value.measured
1  Cc1cc(Nc2cc(-c3ccccc3)[nH]n2)n2nc(SCc3ccc(Br)cc3)nc2n1            5.57
2  COc1ccc(CSc2nc3nc(C)cc(Nc4cc(-c5ccccc5)[nH]n4)n3n2)cc1            5.40
3  Cc1ccc(CSc2nc3nc(C)cc(Nc4cc(-c5ccccc5)[nH]n4)n3n2)cc1            5.14
4  Cc1cc(Nc2cc(-c3ccccc3)[nH]n2)n2nc(SCCc3ccccc3)nc2n1            5.57
5  CCCCCc1c(C)nc2nc(SCc3ccc(Cl)cc3)nn2c1Nc1cc(-c2ccccc2)[nH]n1            5.19
6  Cc1cc(Nc2cc(-c3ccccc3)[nH]n2)n2nc(SCc3c(Cl)cccc3Cl)nc2n1            5.49

## Task Record request: pIC50 value, item Cc1cc(Nc2cc(C(C)(C)C)[nH]n2)n2nc(SCc3ccc(Br)cc3)nc2n1
## Result 5.14
